- SYSTEM_NAME: Prothrombin (Homo sapiens) (UniProt P00734)
- EXPERIMENT_DESCRIPTION: Inhibition of thrombin (unknown origin) using Boc-Val-Pro-Arg-AMC as substrate at 25 uM preincubated with protein for 15 mins followed by substrate addition measured for 10 mins by continuous fluorimetric assay relative to control
The source made the active and inactive calls. No cut-off for these calls is given here.
MEASURED_PARAMETER: inhibition

N=C(N)NCCC[C@H](NC(=O)c1cccs1)C(=O)N[C@@H](CCCCN)C(=O)N[C@@H](C(N)=O)c1ccc(OCc2ccc(F)cc2)cc1 = inactive
N=C(N)NCCC[C@H](NC(=O)c1sccc1Cl)C(=O)N[C@@H](CCCCN)C(=O)N[C@@H](C(N)=O)c1ccc(OCc2ccccc2)cc1 = < 30%
COc1cccc(COc2ccc([C@@H](NC(=O)[C@H](CCCCN)NC(=O)[C@H](CCCNC(=N)N)NC(=O)c3ccccc3)C(N)=O)cc2)c1 = < 30%
COc1cccc(COc2ccc([C@@H](NC(=O)[C@H](CCCCN)NC(=O)[C@H](CCCNC(=N)N)NC(=O)c3nccs3)C(N)=O)cc2)c1 = inactive
N=C(N)NCCC[C@H](NC(=O)c1ccc(-c2cccs2)s1)C(=O)N[C@@H](CCCCN)C(=O)N[C@@H](C(N)=O)c1ccc(OCc2ccccc2)cc1 = < 30%
N=C(N)NCCC[C@H](NC(=O)c1cncs1)C(=O)N[C@@H](CCCCN)C(=O)N[C@@H](C(N)=O)c1ccc(OCc2ccccc2)cc1 = < 30%
N=C(N)NCCC[C@H](NC(=O)c1ccccc1)C(=O)N[C@@H](CCCCN)C(=O)N[C@@H](C(N)=O)c1ccc(OCc2ccc(F)cc2)cc1 = < 30%
N=C(N)NCCC[C@H](NC(=O)/C=C/c1ccccc1)C(=O)N[C@@H](CCCCN)C(=O)N[C@@H](C(N)=O)c1ccc(OCc2ccccc2)cc1 = < 30%

# evaluate next
Query block: What does the data say about its inhibition? Entry: COc1cccc(COc2ccc([C@@H](NC(=O)[C@H](CCCCN)NC(=O)[C@H](CCCNC(=N)N)NC(=O)c3cccs3)C(N)=O)cc2)c1
Result block: inactive

====

Form field: CC50 at 48 h (one value per entry).
- EXPERIMENT_DESCRIPTION: Cytotoxicity against human HuH7 cells infected with Dengue virus serotype-2 assessed as cell viability after 48 hrs by Cell-Titer-Glo luminescent viability assay
- Assay type: cell-based, Huh-7

Here is how some compounds turned out for CC50 at 48 h.
N=C(N)NCCC[C@H](NC(=O)c1cccs1)C(=O)N[C@@H](CCCCN)C(=O)N[C@@H](C(N)=O)c1ccc(OCc2ccc(Cl)c(Cl)c2)cc1 = > 100 µM
N=C(N)NCCC[C@H](NC(=O)c1nccs1)C(=O)N[C@@H](CCCCN)C(=O)N[C@@H](C(N)=O)c1ccc(OCc2ccc(C(F)(F)F)cc2)cc1 = > 100 µM
N=C(N)NCCC[C@H](NC(=O)c1ccc(-c2cccs2)s1)C(=O)N[C@@H](CCCCN)C(=O)N[C@@H](C(N)=O)c1ccc(OCc2ccc(Cl)c(Cl)c2)cc1 = 40 µM
N=C(N)NCCC[C@H](NC(=O)c1cc2ccccc2s1)C(=O)N[C@@H](CCCCN)C(=O)N[C@@H](C(N)=O)c1ccc(OCc2ccc(C(F)(F)F)cc2)cc1 = 56.8 µM
N=C(N)NCCC[C@H](NC(=O)c1ccccc1)C(=O)N[C@@H](CCCCN)C(=O)N[C@@H](C(N)=O)c1ccc(OCc2ccccc2)cc1 = > 100 µM
N=C(N)NCCC[C@H](NC(=O)c1cc2ccccc2s1)C(=O)N[C@@H](CCCCN)C(=O)N[C@@H](C(N)=O)c1ccc(OCc2ccccc2)cc1 = > 100 µM
COc1cccc(COc2ccc([C@@H](NC(=O)[C@H](CCCCN)NC(=O)[C@H](CCCNC(=N)N)NC(=O)c3ccc(-c4cccs4)s3)C(N)=O)cc2)c1 = > 100 µM
COc1cccc(COc2ccc([C@@H](NC(=O)[C@H](CCCCN)NC(=O)[C@H](CCCNC(=N)N)NC(=O)c3cccs3)C(N)=O)cc2)c1 = > 100 µM
CC(C)(C)c1ccc(COc2ccc([C@@H](NC(=O)[C@H](CCCCN)NC(=O)[C@H](CCCNC(=N)N)NC(=O)c3ccc(Cl)s3)C(N)=O)cc2)cc1 = > 100 µM
N=C(N)NCCC[C@H](NC(=O)c1cccs1)C(=O)N[C@@H](CCCCN)C(=O)N[C@@H](C(N)=O)c1ccc(OCc2ccc(C(F)(F)F)cc2)cc1 = > 100 µM

Query block: # CC50 at 48 h lookup, item N=C(N)NCCC[C@H](NC(=O)c1cc2sccc2s1)C(=O)N[C@@H](CCCCN)C(=O)N[C@@H](C(N)=O)c1ccc(OCc2c(Cl)cccc2Cl)cc1
Result block: 34.3 µM

Query block: Sample N=C(N)NCCC[C@H](NC(=O)c1cc2ccsc2s1)C(=O)N[C@@H](CCCCN)C(=O)N[C@@H](C(N)=O)c1ccc(OCc2ccc(C(F)(F)F)cc2)cc1 — what was its CC50 at 48 h?
Result block: 48.5 µM

====

- Test system: dengue virus type 2
- EXPERIMENT_DESCRIPTION: Inhibition of Dengue virus serotype-2 NS2B-NS3 protease using 2-Abz-Nle-Lys-Arg-Arg-Ser-(3-NO2)-Tyr-NH2 as substrate at 50 uM preincubated with protein for 15 mins followed by substrate addition measured for 15 mins by FRET assay
Square brackets hold non-standard residues; d marks the D form. Peptide text beside a SMILES is read from it. * marks the point of attachment. dPhg = N[C@@H](C(=O)O)c1ccccc1; Bz = O=C(c1ccccc1)*
MEASURED_PARAMETER: inhibition (%)

N=C(N)NCCC[C@H](NC(=O)[C@H](CCCCN)NC(=O)c1ccccc1)C(=O)N[C@@H](C(N)=O)c1ccc(OCc2ccccc2)cc1 = 77

[1] N=C(N)NCCC[C@H](NC(=O)c1ccccc1)C(=O)N[C@@H](CCCCN)C(=O)N[C@@H](C(N)=O)c1ccccc1 (Bz-Arg-Lys-[dPhg]-NH2)
[2] N=C(N)NCCC[C@@H](NC(=O)[C@@H](CCCCN)NC(=O)c1ccccc1)C(=O)N[C@@H](C(N)=O)c1ccc(OCc2ccccc2)cc1
Query block: Compare reported inhibition values for 1 and 2 . Which is lower? The response must carry the label of the picked entry.
Result block: 2

====

- System: West Nile virus
- EXPERIMENT_DESCRIPTION: Inhibition of West Nile virus NS2B-NS3 protease using 2-Abz-Gly-Leu-Lys-Arg-Gly-Gly-[…]-Tyr-NH2 as substrate at 50 uM preincubated with protein for 15 mins followed by substrate addition measured for 15 mins by FRET assay
MEASURED_PARAMETER: inhibition (%)

N=C(N)NCCC[C@H](NC(=O)c1ccccc1)C(=O)N[C@@H](CCCCN)C(=O)N[C@@H](C(N)=O)c1ccc(OCC(=O)c2ccccc2)cc1 = 98.8
CC(C)(C)c1ccc(COc2ccc([C@@H](NC(=O)[C@H](CCCCN)NC(=O)[C@H](CCCNC(=N)N)NC(=O)c3ccccc3)C(N)=O)cc2)cc1 = 85.6
N=C(N)NCCC[C@H](NC(=O)c1sccc1Cl)C(=O)N[C@@H](CCCCN)C(=O)N[C@@H](C(N)=O)c1ccc(OCc2ccccc2)cc1 = 95.2
N=C(N)NCCC[C@H](NC(=O)C1CCCC1)C(=O)N[C@@H](CCCCN)C(=O)N[C@@H](C(N)=O)c1ccc(OCc2ccccc2)cc1 = 96.3
N=C(N)NCCC[C@H](NC(=O)c1ccccc1)C(=O)N[C@@H](CCCCN)C(=O)N[C@@H](C(N)=O)c1ccc(OCc2ccc(Cl)cc2)cc1 = 102
N=C(N)NCCC[C@H](NC(=O)c1ccccc1)C(=O)N[C@@H](CCCCN)C(=O)N[C@@H](C(N)=O)c1ccc(OCc2ccc(Cl)c(Cl)c2)cc1 = 97.8
N=C(N)NCCC[C@H](NC(=O)c1cc2sccc2s1)C(=O)N[C@@H](CCCCN)C(=O)N[C@@H](C(N)=O)c1ccc(OCc2c(Cl)cccc2Cl)cc1 = 99.2
COc1cccc(COc2ccc([C@@H](NC(=O)[C@H](CCCCN)NC(=O)[C@H](CCCNC(=N)N)NC(=O)c3nccs3)C(N)=O)cc2)c1 = 100
N=C(N)NCCC[C@H](NC(=O)c1cc2sccc2s1)C(=O)N[C@@H](CCCCN)C(=O)N[C@@H](C(N)=O)c1ccc(OCc2ccccc2C(F)(F)F)cc1 = 97.5
N=C(N)NCCC[C@H](NC(=O)c1ccccc1)C(=O)N[C@@H](CCCCN)C(=O)N[C@@H](C(N)=O)c1ccc(OCc2ccccc2Br)cc1 = 96.7
N=C(N)NCCC[C@H](NC(=O)C1CCC1)C(=O)N[C@@H](CCCCN)C(=O)N[C@@H](C(N)=O)c1ccc(OCc2ccccc2)cc1 = 98
N=C(N)NCCC[C@H](NC(=O)c1ccccc1)C(=O)N[C@@H](CCCCN)C(=O)N[C@@H](C(N)=O)c1ccc(OCc2cccc(Cl)c2)cc1 = 102
N=C(N)NCCC[C@H](NC(=O)c1ccc(Cl)s1)C(=O)N[C@@H](CCCCN)C(=O)N[C@@H](C(N)=O)c1ccc(OCc2ccccc2)cc1 = 98.4
N=C(N)NCCC[C@H](NC(=O)c1ccccc1)C(=O)N[C@@H](CCCCN)C(=O)N[C@H](C(N)=O)c1ccc(O)cc1 = 79.2
N=C(N)NCCC[C@H](NC(=O)c1cc2sccc2s1)C(=O)N[C@@H](CCCCN)C(=O)N[C@@H](C(N)=O)c1ccc(OCc2ccc(Cl)cc2)cc1 = 93.8
N=C(N)NCCC[C@H](NC(=O)c1ccc(-c2cccs2)s1)C(=O)N[C@@H](CCCCN)C(=O)N[C@@H](C(N)=O)c1ccc(OCc2ccc(Cl)c(Cl)c2)cc1 = 100
N=C(N)NCCC[C@H](NC(=O)c1ccsc1)C(=O)N[C@@H](CCCCN)C(=O)N[C@@H](C(N)=O)c1ccc(OCc2ccccc2)cc1 = 98.2
N=C(N)NCCC[C@H](NC(=O)c1cc2ccccc2s1)C(=O)N[C@@H](CCCCN)C(=O)N[C@@H](C(N)=O)c1ccc(OCc2ccccc2)cc1 = 97.1
N=C(N)NCCC[C@H](NC(=O)C1CCCCC1)C(=O)N[C@@H](CCCCN)C(=O)N[C@@H](C(N)=O)c1ccc(OCc2ccccc2)cc1 = 95.7
N=C(N)NCCC[C@H](NC(=O)c1cc(-c2ccccc2)cs1)C(=O)N[C@@H](CCCCN)C(=O)N[C@@H](C(N)=O)c1ccc(OCc2c(Cl)cccc2Cl)cc1 = 98
N=C(N)NCCC[C@H](NC(=O)CCc1ccccc1)C(=O)N[C@@H](CCCCN)C(=O)N[C@@H](C(N)=O)c1ccc(OCc2ccccc2)cc1 = 87.4
N=C(N)NCCC[C@H](NC(=O)c1ccccc1)C(=O)N[C@@H](CCCCN)C(=O)N[C@@H](C(N)=O)c1ccc(OCc2ccc(OC(F)(F)F)cc2)cc1 = 97.1
N=C(N)NCCC[C@H](NC(=O)c1cccnc1)C(=O)N[C@@H](CCCCN)C(=O)N[C@@H](C(N)=O)c1ccc(OCc2ccccc2)cc1 = 96.4
N=C(N)NCCC[C@H](NC(=O)c1cccs1)C(=O)N[C@@H](CCCCN)C(=O)N[C@@H](C(N)=O)c1ccc(OCc2ccc(F)cc2)cc1 = 101
N=C(N)NCCC[C@H](NC(=O)c1cc2ccccc2s1)C(=O)N[C@@H](CCCCN)C(=O)N[C@@H](C(N)=O)c1ccc(OCc2c(Cl)cccc2Cl)cc1 = 95.9
N=C(N)NCCC[C@H](NC(=O)c1nccs1)C(=O)N[C@@H](CCCCN)C(=O)N[C@@H](C(N)=O)c1ccc(OCc2ccccc2)cc1 = 98.8
